Target: HLA-DRB1*0401 (Homo sapiens (Human), UniProt P01903+P01911, A100K/A169T/DEL228-266/F76Y/I96L/K127E/L162R/M171V/N62H/P40V/Q125Y/R42H/S133A/S149N/S66Y/V115G/V209L/W38E)
Assay: HLA-DR4 HTRF assay
Conditions: inhibition of loading of Alexa Fluor 647-labeled Cit-CII peptide onto HLA-DR4 (CLIP cleaved)
// boundary case: IC50 equal to 1000 nM maps to false (0); strictly smaller maps to true (1)

C[C@@H]1COc2cc(O[C@@H](c3ccncc3)c3ccc(C(N)=O)cc3)ccc2C1=O (single isomer, unassigned) [Example 44b]; false (0)
Cc1cc(C(N)=O)ccc1[C@@H](Oc1ccc2c(c1)OCCC2=O)c1ccncc1 (single isomer, unassigned) [Example 36b]; true (1)
CC[C@H]1COc2cc(O[C@H](c3ccncc3)c3ccc(C(N)=O)cc3)ccc2C1=O (single isomer, unassigned) [Example 45b]; false (0)
Cc1cc([C@H](Oc2ccc3c(c2C)OC(C)(C)CC3=O)c2ccc(C(N)=O)cc2)cc(C)n1 (single isomer, unassigned) [Example 112a]; true (1)

**Query** I wonder whether Cc1c(O[C@@H](c2ccc(C(N)=O)cc2)c2ccc(C(=O)O)cc2)ccc2c1OCCC2=O (single isomer, unassigned) [Example 71b] has IC50 below 1000 nM. Can you tell?
**Result** true (1)

====

Target: HLA-DRB1*0401 (Homo sapiens (Human), UniProt P01903+P01911, A100K/A169T/DEL228-266/F76Y/I96L/K127E/L162R/M171V/N62H/P40V/Q125Y/R42H/S133A/S149N/S66Y/V115G/V209L/W38E)
Assay: HLA-DR4 HTRF assay
Conditions: inhibition of loading of Alexa Fluor 647-labeled Cit-CII peptide onto HLA-DR4 (CLIP cleaved)
pIC50: −log10 of the molar value.
Classify by measured pIC50: yes if it is equal to or exceeds 6, no if it is smaller.

Cc1cc2c(c(C)c1O[C@@H](c1ccncc1)c1ccc(C(N)=O)cc1)OCCC2=O (single isomer, unassigned) [Example 89a]; yes
Cc1cc([C@H](Oc2ccc3c(c2C)OCCC3=O)c2ccc(C(N)=O)cc2)cc(C)n1 (single isomer, unassigned) [Example 111a]; yes
Cc1c(O[C@@H](c2ccc(Cl)cc2)c2ccc(C(N)=O)nc2)ccc2c1OCCC2=O (single isomer, unassigned) [Example 64b]; no
Cc1c(O[C@@H]2CCCc3cc(C#N)ccc32)ccc2c1OCCC2=O (single isomer, unassigned) [Example 122a]; yes

**Query** Could you tell me if the measured pIC50 of Cc1c(O[C@@H](c2ccc(C(N)=O)cc2)c2ccnc(CCC(=O)O)c2)ccc2c1OCCC2=O (single isomer, unassigned) [Example 87b] reaches 6 or more?
**Result** yes

**Query** Check this compound for pIC50 at or above 6: O=C1CCOc2cc(O[C@@H](c3ccncc3)c3cccc(O)c3)ccc21 (single isomer, unassigned) [Example 5b]
**Result** no

====

Overview of recorded pIC50 for various compounds
Molecular target: HLA-DRB1*0401 (Homo sapiens (Human), UniProt P01903+P01911, A100K/A169T/DEL228-266/F76Y/I96L/K127E/L162R/M171V/N62H/P40V/Q125Y/R42H/S133A/S149N/S66Y/V115G/V209L/W38E)
Experiment: HLA-DR4 HTRF assay
Conditions: inhibition of loading of Alexa Fluor 647-labeled Cit-CII peptide onto HLA-DR4 (CLIP cleaved)
In simple prose, pIC50 is minus the logarithm base ten of a concentration in moles per litre.

Cc1cc2c(c(C)c1O[C@H](c1ccncc1)c1ccc(C#N)cc1)OCCC2=O (single isomer, unassigned) [Example 88b]; 6.44
Cc1c(O[C@H](c2ccncc2)c2ccc(C(N)=O)cc2)c(F)cc2c1OCCC2=O (single isomer, unassigned) [Example 58b]; 6.14
NC(=O)c1ccc([C@H](Oc2ccc3c(c2)OCCC3=O)c2ccncc2)c2ccccc12 (single isomer, unassigned) [Example 98a]; 5.05
COc1ccc(COc2ccc([C@H](Oc3ccc4c(c3)OCCC4=O)c3ccncc3)cc2)cc1 (single isomer, unassigned) [Example 17b]; 5.31
Cc1c(O[C@H](c2ccncc2)c2ccc(S(C)(=O)=O)cc2)c(F)cc2c1OCCC2=O (single isomer, unassigned) [Example 104b]; 6.64
NC(=O)c1ccc([C@H](Oc2ccc3c(c2)OCCC3=O)c2ccncc2C(F)(F)F)cc1 (single isomer, unassigned) [Example 19b]; 5.92
NC(=O)c1ccc([C@@H](Oc2ccc3c(c2)O[C@@H](c2ccccc2)CC3=O)c2ccncc2)cc1 (single isomer, unassigned) [Example 43a]; 5.44
NC(=O)c1ccc([C@@H](Oc2ccc3c(c2)OCCC3=O)c2ccncc2C(F)(F)F)cc1 (single isomer, unassigned) [Example 19a]; 6.09
Cc1c(O[C@@H](c2ccccc2)c2ccc(C(=O)O)cc2)ccc2c1OCCC2=O (single isomer, unassigned) [Example 70b]; 5.82
N#Cc1ccc([C@H](Oc2ccc3c(c2)OCCC3=O)c2ccncc2)cc1 (single isomer, unassigned) [Example 10b]; 6.04

**Query** Please look at this compound and report its pIC50: COc1cc([C@@H](Oc2ccc3c(c2)OCCC3=O)c2ccc(C(N)=O)cc2)ccn1 (single isomer, unassigned) [Example 24b]
**Result** 5.92

**Query** Please give the documented pIC50 of NC(=O)c1ccc([C@@H](Oc2ccc3c(c2)OCCC3=O)c2ccncc2-c2ccccc2)cc1 (single isomer, unassigned) [Example 25a]
**Result** 6.32

====

Target: HLA-DRB1*0401 (Homo sapiens (Human), UniProt P01903+P01911, A100K/A169T/DEL228-266/F76Y/I96L/K127E/L162R/M171V/N62H/P40V/Q125Y/R42H/S133A/S149N/S66Y/V115G/V209L/W38E)
Test: HLA-DR4 HTRF assay
Assay type: binding
Conditions: inhibition of loading of Alexa Fluor 647-labeled Cit-CII peptide onto HLA-DR4 (CLIP cleaved)
Measured log10(IC50), listed per entry for reference.
Record value = log10 of IC50 given in nM.

O=C1CCOc2cc(O[C@@H](c3ccccc3)c3ccncc3)ccc21 (single isomer, unassigned) [Example 114b]; 3.11

The record that follows has no log10(IC50) shown yet.
**Query** Look up and state reported log10(IC50) for Cc1cc2c(c(C)c1O[C@@H](c1ccc(F)cc1)c1ccc(C(N)=O)cc1)OCCC2=O (single isomer, unassigned) [Example 90a]
**Result** 2.72

====

Target: HLA-DRB1*0401 (Homo sapiens (Human), UniProt P01903+P01911, A100K/A169T/DEL228-266/F76Y/I96L/K127E/L162R/M171V/N62H/P40V/Q125Y/R42H/S133A/S149N/S66Y/V115G/V209L/W38E)
Assay: HLA-DR4 HTRF assay
Assay type: binding
Conditions: inhibition of loading of Alexa Fluor 647-labeled Cit-CII peptide onto HLA-DR4 (CLIP cleaved)
Listed next: entries and their corresponding pIC50.
// pIC50 here means minus log10 of the molar concentration (mol/L)

Cc1c(O[C@H](c2ccncc2)c2cccc(F)c2)c(F)cc2c1OCCC2=O (single isomer, unassigned) [Example 96a]; 6.52

**Query** Read the entry NC(=O)c1ccc([C@H](Oc2ccc3c(c2)OCCC3=O)c2ccccn2)cc1 (single isomer, unassigned) [Example 32b] and write its reported pIC50.
**Result** 5.72

**Query** Kindly indicate its recorded pIC50. Item: NC(=O)c1ccc([C@@H](Oc2ccc3c(c2-c2ccc(-c4ccccc4)cc2)OCCC3=O)c2ccncc2)cc1 (single isomer, unassigned) [Example 79a]
**Result** 4.55

**Query** Fill in pIC50 for record NC(=O)c1ccc([C@H](Oc2cc3c(cc2-c2ccccc2)C(=O)CCO3)c2ccncc2)cc1 (single isomer, unassigned) [Example 54b]
**Result** 6.06

**Query** Quick one: give measured pIC50 for CC(C)c1c(O[C@@H](c2ccc(C(N)=O)cc2)c2cccc(C#N)c2)ccc2c1OCCC2=O (single isomer, unassigned) [Example 107b]
**Result** 5.96

**Query** Note down pIC50 recorded for N#Cc1ccc([C@@H](Oc2ccc3c(c2)OCCC3=O)c2ccncc2)c2ccccc12 (single isomer, unassigned) [Example 37b]
**Result** 4.62

**Query** Please list pIC50 recorded for the compound Cc1cc([C@@H](Oc2ccc3c(c2C#N)OCCC3=O)c2ccc(C(N)=O)cc2)cc(C)n1 (single isomer, unassigned) [Example 110b]
**Result** 6.21

**Query** Find the measured pIC50 of NC(=O)c1ccc([C@H](Oc2ccc3c(c2)OCCC3=O)c2ccnc(N)c2)cc1 (single isomer, unassigned) [Example 28b] and report it.
**Result** 5.77

**Query** Give pIC50 for Cc1c(O[C@@H](c2ccncc2)c2cccc(F)c2)c(F)cc2c1OCCC2=O (single isomer, unassigned) [Example 96b]
**Result** 6.33

**Query** Supply recorded pIC50 for Cc1c(O[C@@H]2CCc3cc(C(N)=O)ccc32)ccc2c1OCCC2=O (single isomer, unassigned) [Example 121a] here.
**Result** 6.03
